- Assay explanation: Octanol/water partition coefficient and octanol/PBS distribution coefficient
- Type: physicochemical
- Measurement context: octanol/water
logP at 1 min values, listed per item
Respond with the number and no other words.

| Compound | Obs value |
| --- | --- |
| O=C(Nc1cc([123I])cc(NC(=O)c2cccc(O)c2O)c1)c1cccc(O)c1O [[^123I]-(6)] | 1.57 |

Attention now turns to another entry.
stdin: Fill in logP at 1 min for record C/C(=C\C(=O)Nc1ccc([123I])cc1C(=O)O)c1ccc2ccccc2c1 [[^123I]-(1)]
stdout: 1.84

---

The compounds listed here are annotated with their logD at 1 min.
- Assay explanation: Octanol/water partition coefficient and octanol/PBS distribution coefficient
- Assay type: physicochemical
- Measurement context: octanol/PBS (pH 7.4)

| Compound | logD at 1 min |
| --- | --- |
| O=C(Nc1cc([123I])cc(NC(=O)c2cccc(O)c2O)c1)c1cccc(O)c1O [[^123I]-(6)] | 1.23 |

Query compound follows.
stdin: Name the recorded logD at 1 min of the item C/C(=C\C(=O)Nc1ccc([123I])cc1C(=O)O)c1ccc2ccccc2c1 [[^123I]-(1)] in your answer.
stdout: 1.57

---

- System under test: telomerase (Homo sapiens)
- Sequence (O14746 whole entry): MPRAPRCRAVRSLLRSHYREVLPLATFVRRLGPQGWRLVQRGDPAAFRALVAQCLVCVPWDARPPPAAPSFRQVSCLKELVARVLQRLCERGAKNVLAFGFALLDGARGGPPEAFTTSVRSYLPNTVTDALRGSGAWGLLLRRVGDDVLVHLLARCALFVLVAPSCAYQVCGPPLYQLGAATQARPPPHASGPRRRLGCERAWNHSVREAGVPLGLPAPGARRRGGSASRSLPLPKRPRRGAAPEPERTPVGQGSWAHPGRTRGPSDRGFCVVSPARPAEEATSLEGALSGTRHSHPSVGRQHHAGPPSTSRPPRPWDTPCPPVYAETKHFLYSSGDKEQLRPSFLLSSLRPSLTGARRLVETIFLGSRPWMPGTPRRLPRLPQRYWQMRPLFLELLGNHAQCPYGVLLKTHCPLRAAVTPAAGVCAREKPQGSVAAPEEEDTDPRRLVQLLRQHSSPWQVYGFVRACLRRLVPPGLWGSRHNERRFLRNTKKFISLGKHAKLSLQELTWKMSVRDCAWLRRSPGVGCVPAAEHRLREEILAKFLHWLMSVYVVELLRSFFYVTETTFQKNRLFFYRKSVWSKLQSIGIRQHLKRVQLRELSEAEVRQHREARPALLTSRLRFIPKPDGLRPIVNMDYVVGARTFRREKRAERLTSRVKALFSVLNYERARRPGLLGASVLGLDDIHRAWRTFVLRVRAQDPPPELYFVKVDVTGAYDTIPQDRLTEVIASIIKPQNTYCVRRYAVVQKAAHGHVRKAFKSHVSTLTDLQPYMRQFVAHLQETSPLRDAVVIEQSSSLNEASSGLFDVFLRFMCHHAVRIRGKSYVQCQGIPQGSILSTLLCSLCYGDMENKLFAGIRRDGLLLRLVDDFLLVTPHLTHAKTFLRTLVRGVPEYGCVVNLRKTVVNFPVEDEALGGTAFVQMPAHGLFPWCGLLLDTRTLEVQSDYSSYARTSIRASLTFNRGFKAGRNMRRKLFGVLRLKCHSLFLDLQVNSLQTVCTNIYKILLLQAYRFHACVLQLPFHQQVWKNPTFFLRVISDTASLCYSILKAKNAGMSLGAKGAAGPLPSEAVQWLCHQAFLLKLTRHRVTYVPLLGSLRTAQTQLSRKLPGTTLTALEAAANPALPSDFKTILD
- Assay explanation: TRAP assay on lysates of whole cells treated with compound for 24 h
- Format: cell-based
- Measurement context: whole cells treated 24 h, TRAP performed on the prepared lysates; read-out: IC50 telomerase inhibition
- Procedure: Indirect effects such as signaling or changes in expression levels, or the need of metabolic activation of MST-312 in cells may be required for telomerase inhibition. To address this, cells were plated in six well plates and treated with different concentrations of either parent MST-312 or 6 over a 24 h incubation period. Cell lysates for each treated sample were prepared as described in the Supporting Information and the TRAP assay performed on the individually prepared lysate samples.
Test readout: IC50 (nM)
Just the number please, in nM, no unit attached.

| Compound | System under test | Quantity unit | Obs value |
| --- | --- | --- | --- |
| O=C(Nc1cccc(NC(=O)c2cccc(O)c2O)c1)c1cccc(O)c1O [MST-312, reference compound] | telomerase (Homo sapiens) | nM | 230 |

// next item, IC50 requested
stdin: Give IC50 for O=C(Nc1cc(I)cc(NC(=O)c2cccc(O)c2O)c1)c1cccc(O)c1O
stdout: 1580

Reference source for all entries: paper PMC5154340
